Ref: ChEMBL document CHEMBL5385885

- Method Description: Ulcerogenic activity in Albino mouse assessed as histopathological change in stomach by H and E staining based analysis
- Type: toxicity
- Condition Notes: in vivo
Quantity Kind: Activity

> print(dat)
                            smiles.notation  quantity.kind  observed.result
1  Cc1ccc(-c2cc(C(F)(F)F)nn2-c2ccc(S(N)(=O)=O)cc2)cc1       Activity        Non-Toxic
2            O=C(O)Cc1ccccc1Nc1c(Cl)cccc1Cl       Activity            Toxic
3  Nc1c(C(=O)N/N=C/c2ccc(O)cc2)cnn1-c1ccc(S(N)(=O)=O)cc1       Activity        Non-Toxic
4  Nc1c(C(=O)N/N=C/c2ccccc2)cnn1-c1ccc(S(N)(=O)=O)cc1       Activity        Non-Toxic

---

- Assay System: Carbonic anhydrase 9 (Homo sapiens)
Quantity Kind: Ki (nM)

> print(dat)
                            smiles.notation  quantity.kind  observed.result
1  Nc1c(C(=O)N/N=C/c2ccc(O)cc2)cnn1-c1ccc(S(N)(=O)=O)cc1             Ki             48.9
